# TEST: Toxicity liver stage against HepG2, at 10uM
# Assay type: cell-based
# Set-up: test concentration 10 uM, cell line HepG2-A16-CD81EGFP
# SETUP CONDITIONS: human, HepG2-A16-CD81EGFP cells; read-out: INHIBITION
In this section, each of the compounds is paired with its reported cytotoxicity at 10 µM.
Response body: numeric value in %, unit text excluded.

Example entries begin here.
Cc1nc(CN2C[C@@H]3CN(c4ncccn4)C[C@@H]3C2=O)cs1	5.16
Cc1ccc(CN2CCN(CC3CC3)[C@@H]3CS(=O)(=O)C[C@@H]32)cc1C	25.4

Value of measured cytotoxicity at 10 µM for the entry Cc1ccc(C)c(CS(=O)(=O)CC(=O)NC(C)c2ccc(F)cc2F)c1 (configuration not stated) : 9.71

Value of measured cytotoxicity at 10 µM for the entry c1cncc(CN2CCCn3nnc(CN4CCCC4)c3C2)c1 : 4.78

Value of measured cytotoxicity at 10 µM for the entry O=C(c1n[nH]c2c1CCN(Cc1nccs1)C2)N1CCCC1 : -10.7

Value of measured cytotoxicity at 10 µM for the entry Cc1noc([C@]23COC[C@H]2CN(C(C)C)C3)n1 : 1.44

Value of measured cytotoxicity at 10 µM for the entry CN1CC(=O)N(C2CCC2)Cc2c(NC3CCNCC3)ncnc21 : 8.77

Value of measured cytotoxicity at 10 µM for the entry c1nc(N2CCOC(Cn3cncn3)C2)c2sccc2n1 (configuration not stated) : 16.7

Value of measured cytotoxicity at 10 µM for the entry Cn1nnn(-c2ccc(NS(=O)(=O)c3ccc(F)c(Cl)c3)cc2)c1=O : -4.57

Value of measured cytotoxicity at 10 µM for the entry Cc1ccc(C(=O)Nc2ccc(OC3CCN(C)CC3)cc2)c(C)c1 : 7.48

Value of measured cytotoxicity at 10 µM for the entry CC(C)N(C)CC(=O)N1CCCC(c2ccc(C(=O)O)cc2)C1 (configuration not stated) : -6.09

Value of measured cytotoxicity at 10 µM for the entry NC(=O)C1(Cc2ccc(-c3ccccc3)cc2)CCCNC1 (configuration not stated) : 0.772

Value of measured cytotoxicity at 10 µM for the entry CCOc1ccccc1CC(=O)N1CCCC(c2ncc[nH]2)C1 (configuration not stated) : -2.65

Value of measured cytotoxicity at 10 µM for the entry CC(C)(C)n1ccc(C(=O)N2CCCC(c3ncc[nH]3)C2)c1 (configuration not stated) : 2.96

Value of measured cytotoxicity at 10 µM for the entry Cc1ccc(CN2CCOC3(COCCN(CCN(C)C)C3)C2)o1 (configuration not stated) : -1.65

Value of measured cytotoxicity at 10 µM for the entry O=C(Nc1ccc(F)cc1)C(c1ccccc1)N1CCOCC1 (configuration not stated) : -3.84

Value of measured cytotoxicity at 10 µM for the entry Cc1ccc(S(=O)(=O)N2Cc3c(CN(C)C)nn(C)c3C2)cc1 : 2.32

Value of measured cytotoxicity at 10 µM for the entry Cc1ccc2c(ccn2CCC(=O)N2CCC(C(N)=O)CC2)c1 : -12.6

Value of measured cytotoxicity at 10 µM for the entry O=C(CNC(=O)Nc1c(F)cc(F)cc1-c1ccccc1)NC1CC1 : -13.5

Value of measured cytotoxicity at 10 µM for the entry O=C(NC[C@H]1OC[C@@H](NC2CCCCC2)[C@@H]1O)Nc1ccccc1 : -11.6

Value of measured cytotoxicity at 10 µM for the entry COCC1c2c(cnn2C)CCN1Cc1ccoc1 (configuration not stated) : -10.8

Values from ChEMBL document CHEMBL4513216
